Reference source: patent US5004780A

Listed here are compounds together with their documented Half-life period.
experiment description: Thermal decomposition of peroxyketal in cumene at 100° C.
Format: physicochemical
test settings: 0.05 mol/l, 50000 µM
Protocol: A 0.05 mol/l cumene solution of each of the cyclic monoperoxyketals of the present invention produced in Examples 1-6 and the cyclic bisperoxyketals produced in the same manner as described in Examples 1-6 was prepared. […] Then, the ampules were put in a thermostat kept at 100° C., and taken out from the thermostate every predetermined times, and the concentration of peroxyketal was measured by a gas chromatography or liquid chromatography. […]
Output should be the measured figure followed by the unit it is expressed in.

Field: example entries. Status: answers known.
>>> measured_result("COC1(OOC(C)(C)C)CCCCC1")
"2.84 h"
>>> measured_result("CC(C)(OOC1(OOC(C)(C)c2ccccc2)CCCCC1)c1ccccc1 [compound 5, reference compound]")
"2.34 h"

Switching to the query record.
query: Endpoint output: Half-life period of CCCC(C)(C)OOC1(OOC(C)(C)CCC)CC(C)CC(C)(C)C1 (stereo not drawn) [compound 6, reference compound] . Value?
result: 2.57 h

----------
experiment description: Solubility of peroxyketal in unsaturated polyester resin
Assay type: physicochemical
Design: key: .circle.: Complete dissolving; Δ: Fairly long time was required in dissolving; X: Incomplete dissolving (white turbid)
measured parameter: Solubility

Examples with answers:
>>> measured_result("CC(C)(OOC1(OOC(C)(C)c2ccccc2)CCCCC1)c1ccccc1 [compound 5, reference compound]")
".circle."
>>> measured_result("CCC(C)(C)OOC1(OC)CCCCC1 [Example 8]")
".circle."
>>> measured_result("CCCC(C)(C)OOC1(OC)CC(C)CC(C)(C)C1 (stereo not drawn) [Example 12]")
".circle."
>>> measured_result("CC(C)(C)CC(C)(C)OOC1(OOC(C)(C)CC(C)(C)C)CCCCC1 [compound 4, reference compound]")
"X"
>>> measured_result("COC1(OOC(C)(C)C)CCCCC1 [Example 7]")
".circle."
>>> measured_result("CCCC(C)(C)OOC1(OOC(C)(C)CCC)CC(C)CC(C)(C)C1 (stereo not drawn) [compound 6, reference compound]")
"Δ"
>>> measured_result("CC(C)(C)OOC(=O)c1ccccc1 [compound 28, 1,1-dimethylethyl peroxybenzoate]")
".circle."
>>> measured_result("COC1(OOC(C)(C)c2ccccc2)CCCCC1 [Example 11]")
".circle."

Now for the molecule whose Solubility we want.
query: Field request: Solubility | item: CC(C)(C)OOC1(OOC(C)(C)C)CCCCC1 [Comparative example 1, reference compound]
result: .circle.

----------
experiment description: Amounts of ketone and alcohol formed by the thermal decomposition of peroxyketal in cumene
Format: physicochemical
test settings: 100° C.
The following compounds are listed with their measured Thermal decomposition product: Alcohol values.

>>> measured_result("COC1(OOC(C)(C)C)CCCCC1 [Example 7]")
"0.47 mols per 1 mol of decomposed p"
>>> measured_result("COC1(OOC(C)(C)CC(C)(C)C)CCCCC1 [Example 10]")
"0.01 mols per 1 mol of decomposed p"

query: Entry CCC(C)(C)OOC1(OOC(C)(C)CC)CCCCC1 [compound 2, reference compound] : reported Thermal decomposition product: Alcohol = ?
result: 0.26 mols per 1 mol of decomposed p

query: Also, CC(C)(C)CC(C)(C)OOC1(OOC(C)(C)CC(C)(C)C)CCCCC1 [compound 4, reference compound] please.
result: 0.24 mols per 1 mol of decomposed p

----------
experiment description: Amounts of ketone and alcohol formed by the thermal decomposition of peroxyketal in cumene
Type: physicochemical
test settings: 100° C.
Protocol: The amount of ketone and that of alcohol contained in each of the thermal decomposition solutions obtained in Examples 6-12 and Comparative examples 1-6 were measured by means of a gas chromatography. The numbers of mols of ketone and alcohol per 1 mol of each of decomposed cyclic monoperoxyketal or cyclic bisperoxyketal were measured. The obtained results are shown in the following Table 4 as Examples 17-22 and Comparative examples 8-13.
Overview of recorded Thermal decomposition product: Alcohol for various compounds

>>> measured_result("CCCC(C)(C)OOC1(OC)CCCCC1")
"0.31 mols per 1 mol of decomposed p"
>>> measured_result("CCCC(C)(C)OOC1(OOC(C)(C)CCC)CCCCC1 [compound 3, reference compound]")
"0.65 mols per 1 mol of decomposed p"

query: # lookup: Thermal decomposition product: Alcohol of CC(C)(C)OOC1(OOC(C)(C)C)CCCCC1 [Comparative example 1, reference compound]
result: 1.37 mols per 1 mol of decomposed p

----------
experiment description: Solubility of peroxyketal in unsaturated polyester resin
Type: physicochemical
Set-up: key: .circle.: Complete dissolving; Δ: Fairly long time was required in dissolving; X: Incomplete dissolving (white turbid)
measured parameter: Solubility

>>> measured_result("CCC(C)(C)OOC1(OOC(C)(C)CC)CCCCC1 [compound 2, reference compound]")
"Δ"
>>> measured_result("CCCC(C)(C)OOC1(OOC(C)(C)CCC)CCCCC1 [compound 3, reference compound]")
"Δ"
>>> measured_result("CCCC(C)(C)OOC1(OC)CCCCC1")
".circle."
>>> measured_result("COC1(OOC(C)(C)CC(C)(C)C)CCCCC1")
".circle."

----------
experiment description: Thermal decomposition of peroxyketal in cumene at 100° C.
Assay type: physicochemical
test settings: 0.05 mol/l
measured parameter: Decomposition rate constant

In the examples that follow, each entry is paired with its recorded Decomposition rate constant.
>>> measured_result("COC1(OOC(C)(C)C)CCCCC1")
"6.79 ×10^5 (1/sec)"
>>> measured_result("CCC(C)(C)OOC1(OC)CCCCC1")
"10.58 ×10^5 (1/sec)"
>>> measured_result("CCCC(C)(C)OOC1(OC)CC(C)CC(C)(C)C1 (stereo not shown)")
"11.25 ×10^5 (1/sec)"
>>> measured_result("CCCC(C)(C)OOC1(OOC(C)(C)CCC)CCCCC1 [compound 3, reference compound]")
"7.48 ×10^5 (1/sec)"

query: Which Decomposition rate constant value belongs to CCC(C)(C)OOC1(OOC(C)(C)CC)CCCCC1 [compound 2, reference compound] ?
result: 7.32 ×10^5 (1/sec)

query: And then `CCCC(C)(C)OOC1(OC)CCCCC1` , what is it?
result: 11.20 ×10^5 (1/sec)

query: Would you kindly repeat that for CC(C)(C)CC(C)(C)OOC1(OOC(C)(C)CC(C)(C)C)CCCCC1 [compound 4, reference compound] ?
result: 19.83 ×10^5 (1/sec)

----------
experiment description: Thermal decomposition of peroxyketal in cumene at 100° C.
Assay type: physicochemical
test settings: 0.05 mol/l, 50000 µM
measured parameter: Half-life period (h)
The figure you give is taken to be in h; do not add the unit.

query: I would be grateful if you could share the reported Half-life period for `CCCC(C)(C)OOC1(OC)CCCCC1` .
result: 1.72

query: Same for CCCC(C)(C)OOC1(OOC(C)(C)CCC)CCCCC1 [compound 3, reference compound]
result: 2.57

query: Entry to check: `COC1(OOC(C)(C)c2ccccc2)CCCCC1`
result: 1.70

query: Repeat with CC(C)(C)CC(C)(C)OOC1(OOC(C)(C)CC(C)(C)C)CCCCC1 [compound 4, reference compound]
result: 0.97

query: What do you get for CCC(C)(C)OOC1(OOC(C)(C)CC)CCCCC1 [compound 2, reference compound] ?
result: 2.63

----------
experiment description: Amounts of ketone and alcohol formed by the thermal decomposition of peroxyketal in cumene
Format: physicochemical
test settings: 100° C.
measured parameter: Thermal decomposition product: Alcohol

>>> measured_result("CC(C)(OOC1(OOC(C)(C)c2ccccc2)CCCCC1)c1ccccc1 [compound 5, reference compound]")
"1.00 mols per 1 mol of decomposed p"

query: For `COC1(OOC(C)(C)c2ccccc2)CCCCC1` , what is its reported Thermal decomposition product: Alcohol?
result: 0.60 mols per 1 mol of decomposed p

query: Same for `CCC(C)(C)OOC1(OC)CCCCC1`
result: 0.14 mols per 1 mol of decomposed p

query: Check CCCC(C)(C)OOC1(OC)CC(C)CC(C)(C)C1 (centres unmarked) too.
result: 0.30 mols per 1 mol of decomposed p

query: Param item: CCCC(C)(C)OOC1(OOC(C)(C)CCC)CC(C)CC(C)(C)C1 (centres unmarked) [compound 6, reference compound]
result: 0.64 mols per 1 mol of decomposed p

----------
experiment description: Thermal decomposition of peroxyketal in cumene at 100° C.
Assay type: physicochemical
test settings: 0.05 mol/l, 50000 µM
Some molecules, each annotated with its measured Half-life period.
Could you give me the number in h? Just the number is fine.

Example cases with answers are listed next.
>>> measured_result("CCCC(C)(C)OOC1(OC)CC(C)CC(C)(C)C1 (stereo not shown)")
1.71
>>> measured_result("CCC(C)(C)OOC1(OC)CCCCC1")
1.82
>>> measured_result("CC(C)(C)OOC1(OOC(C)(C)C)CCCCC1 [Comparative example 1, reference compound]")
3.81

Now take the following molecule into account.
query: Look up Half-life period for this molecule: `COC1(OOC(C)(C)CC(C)(C)C)CCCCC1`
result: 0.68
